Hello, the source for this data is paper PMC6001238, in case you need it.

# Tested on: MRSA KS2
# ASSAY OVERVIEW: MIC, broth microdilution, MRSA KS2
# Type: cell-based, Staphylococcus aureus
# CONDITION DESCRIPTION: Staphylococcus aureus MRSA KS2; read-out: MIC
# Description: The minimum inhibitory concentration (MIC) was determined using the broth microdilution method according to the antimicrobial susceptibility testing standards of the clinical and laboratory standards institute ([Clinical and Laboratory Standards Institute [CLSI], 2012]). Ultrapure water and non-inoculated broth were used as controls. In one case, a final concentration of 10 μM vancomycin was included with the vancomycin analog or control antibiotic.
The compounds listed here are annotated with their MIC.
ASSAY READOUT: MIC

1. CCCCCCCCCC(=O)N[C@@H](Cc1c[nH]c2ccccc12)C(=O)N[C@H](CC(N)=O)C(=O)N[C@@H](CC(=O)O)C(=O)N[C@@H]1C(=O)NCC(=O)N[C@@H](CCCN)C(=O)N[C@@H](CC(=O)O)C(=O)N[C@H](C)C(=O)N[C@@H](CC(=O)O)C(=O)NCC(=O)N[C@H](CO)C(=O)N[C@@H]([C@H](C)CC(=O)O)C(=O)N[C@@H](CC(=O)c2ccccc2N)C(=O)O[C@@H]1C [Daptomycin, reference compound]
12.5 µM
2. CN(C)c1cc(NC(=O)CNC(C)(C)C)c(O)c2c1C[C@H]1C[C@H]3[C@H](N(C)C)C(O)=C(C(N)=O)C(=O)[C@@]3(O)C(O)=C1C2=O [Tigecycline, reference compound]
1.56 µM
3. CNC(CC(C)C)C(=O)NC1C(=O)NC(CC(N)=O)C(=O)NC2C(=O)NC3C(=O)NC(C(=O)NC(C(=O)NCC(=O)Nc4ccc(-c5ccc(OC)cc5)cc4)c4cc(O)cc(O)c4-c4cc3ccc4O)C(O)c3ccc(c(Cl)c3)Oc3cc2cc(c3OC2OC(CO)C(O)C(O)C2OC2CC(C)(N)C(O)C(C)O2)Oc2ccc(cc2Cl)C1O (centres unmarked)
0.20 µM
4. CN[C@H](CC(C)C)C(=O)N[C@H]1C(=O)N[C@@H](CC(N)=O)C(=O)N[C@H]2C(=O)N[C@H]3C(=O)N[C@H](C(=O)N[C@H](C(=O)NCC(=O)Nc4ccc(C(F)(F)F)cc4)c4cc(O)cc(O)c4-c4cc3ccc4O)[C@H](O)c3ccc(c(Cl)c3)Oc3cc2cc(c3O[C@@H]2O[C@H](CO)[C@@H](O)[C@H](O)[C@H]2O[C@H]2C[C@](C)(N)[C@H](O)[C@H](C)O2)Oc2ccc(cc2Cl)[C@H]1O
0.39 µM
5. CN[C@H](CC(C)C)C(=O)N[C@H]1C(=O)N[C@@H](CC(N)=O)C(=O)N[C@H]2C(=O)N[C@H]3C(=O)N[C@H](C(=O)N[C@H](C(=O)NCC(=O)Nc4cc(OC)cc(OC)c4)c4cc(O)cc(O)c4-c4cc3ccc4O)[C@H](O)c3ccc(c(Cl)c3)Oc3cc2cc(c3O[C@@H]2O[C@H](CO)[C@@H](O)[C@H](O)[C@H]2O[C@H]2C[C@](C)(N)[C@H](O)[C@H](C)O2)Oc2ccc(cc2Cl)[C@H]1O
0.39 µM
6. CN[C@H](CC(C)C)C(=O)N[C@H]1C(=O)N[C@@H](CC(N)=O)C(=O)N[C@H]2C(=O)N[C@H]3C(=O)N[C@H](C(=O)N[C@H](C(=O)NCCNC(=O)/C=C/c4ccc(C)cc4)c4cc(O)cc(O)c4-c4cc3ccc4O)[C@H](O)c3ccc(c(Cl)c3)Oc3cc2cc(c3O[C@@H]2O[C@H](CO)[C@@H](O)[C@H](O)[C@H]2O[C@H]2C[C@](C)(N)[C@H](O)[C@H](C)O2)Oc2ccc(cc2Cl)[C@H]1O
0.39 µM
7. CN[C@H](CC(C)C)C(=O)N[C@H]1C(=O)N[C@@H](CC(N)=O)C(=O)N[C@H]2C(=O)N[C@H]3C(=O)N[C@H](C(=O)N[C@H](C(=O)NCC(=O)Nc4cccc(F)c4)c4cc(O)cc(O)c4-c4cc3ccc4O)[C@H](O)c3ccc(c(Cl)c3)Oc3cc2cc(c3O[C@@H]2O[C@H](CO)[C@@H](O)[C@H](O)[C@H]2O[C@H]2C[C@](C)(N)[C@H](O)[C@H](C)O2)Oc2ccc(cc2Cl)[C@H]1O
0.39 µM
8. CN[C@H](CC(C)C)C(=O)N[C@H]1C(=O)N[C@@H](CC(N)=O)C(=O)N[C@H]2C(=O)N[C@H]3C(=O)N[C@H](C(=O)N[C@H](C(=O)NCC(=O)Nc4ccccc4)c4cc(O)cc(O)c4-c4cc3ccc4O)[C@H](O)c3ccc(c(Cl)c3)Oc3cc2cc(c3O[C@@H]2O[C@H](CO)[C@@H](O)[C@H](O)[C@H]2O[C@H]2C[C@](C)(N)[C@H](O)[C@H](C)O2)Oc2ccc(cc2Cl)[C@H]1O
0.78 µM
9. CN[C@H](CC(C)C)C(=O)N[C@H]1C(=O)N[C@@H](CC(N)=O)C(=O)N[C@H]2C(=O)N[C@H]3C(=O)N[C@H](C(=O)N[C@H](C(=O)NCC(=O)Nc4ccc([N+](=O)[O-])cc4)c4cc(O)cc(O)c4-c4cc3ccc4O)[C@H](O)c3ccc(c(Cl)c3)Oc3cc2cc(c3O[C@@H]2O[C@H](CO)[C@@H](O)[C@H](O)[C@H]2O[C@H]2C[C@](C)(N)[C@H](O)[C@H](C)O2)Oc2ccc(cc2Cl)[C@H]1O
0.39 µM
10. CN[C@H](CC(C)C)C(=O)N[C@H]1C(=O)N[C@@H](CC(N)=O)C(=O)N[C@H]2C(=O)N[C@H]3C(=O)N[C@H](C(=O)N[C@H](C(=O)NCC(=O)Nc4ccc(NS(=O)(=O)c5ccc(Cl)cc5Cl)cc4)c4cc(O)cc(O)c4-c4cc3ccc4O)[C@H](O)c3ccc(c(Cl)c3)Oc3cc2cc(c3O[C@@H]2O[C@H](CO)[C@@H](O)[C@H](O)[C@H]2O[C@H]2C[C@](C)(N)[C@H](O)[C@H](C)O2)Oc2ccc(cc2Cl)[C@H]1O
0.20 µM
11. CCCCC#Cc1ccc(NC(=O)CNC(=O)[C@H]2NC(=O)[C@H]3NC(=O)[C@H](NC(=O)[C@@H]4NC(=O)[C@H](CC(N)=O)NC(=O)[C@H](NC(=O)[C@@H](CC(C)C)NC)[C@H](O)c5ccc(c(Cl)c5)Oc5cc4cc(c5O[C@@H]4O[C@H](CO)[C@@H](O)[C@H](O)[C@H]4O[C@H]4C[C@](C)(N)[C@H](O)[C@H](C)O4)Oc4ccc(cc4Cl)[C@H]3O)c3ccc(O)c(c3)-c3c(O)cc(O)cc32)cc1
0.20 µM

* * *

# Test system: Murine leukemia (L1210) cells
# ASSAY OVERVIEW: Cytostatic activity, L1210 cell proliferation
# Assay type: cell-based
# CONDITION DESCRIPTION: mean ± SD of three experiments; highest concentration tested 250 µM; 2 days; read-out: Toxicity (IC50) L1210
ASSAY READOUT: IC50

1) CNC(CC(C)C)C(=O)NC1C(=O)NC(CC(N)=O)C(=O)NC2C(=O)NC3C(=O)NC(C(=O)NC(C(=O)NCCCNC(=O)c4cc5ccccc5s4)c4cc(O)cc(O)c4-c4cc3ccc4O)C(O)c3ccc(c(Cl)c3)Oc3cc2cc(c3OC2OC(CO)C(O)C(O)C2OC2CC(C)(N)C(O)C(C)O2)Oc2ccc(cc2Cl)C1O (centres unmarked)
> 250 µM
2) C#Cc1ccc(C=Cc2ccc(NC(=O)CNC(=O)C3NC(=O)C4NC(=O)C(NC(=O)C5NC(=O)C(CC(N)=O)NC(=O)C(NC(=O)C(CC(C)C)NC)C(O)c6ccc(c(Cl)c6)Oc6cc5cc(c6OC5OC(CO)C(O)C(O)C5OC5CC(C)(N)C(O)C(C)O5)Oc5ccc(cc5Cl)C4O)c4ccc(O)c(c4)-c4c(O)cc(O)cc43)cc2)cc1 (centres unmarked)
5.7 µM

* * *

# Test system: L1210, CEM and HeLa cell lines
# ASSAY OVERVIEW: Cytostatic activity, average or summary over L1210, CEM and HeLa
# Format: cell-based
# CONDITION DESCRIPTION: average of L1210, CEM and HeLa; read-out: Toxicity (IC50) Average
pIC50: −log10 of the molar value.
ASSAY READOUT: pIC50

1) CCCCC#Cc1ccc(/C=C/C(=O)NCCNC(=O)[C@H]2NC(=O)[C@H]3NC(=O)[C@H](NC(=O)[C@@H]4NC(=O)[C@H](CC(N)=O)NC(=O)[C@H](NC(=O)[C@@H](CC(C)C)NC)[C@H](O)c5ccc(c(Cl)c5)Oc5cc4cc(c5O[C@@H]4O[C@H](CO)[C@@H](O)[C@H](O)[C@H]4O[C@H]4C[C@](C)(N)[C@H](O)[C@H](C)O4)Oc4ccc(cc4Cl)[C@H]3O)c3ccc(O)c(c3)-c3c(O)cc(O)cc32)cc1
3.80
2) CNC(CC(C)C)C(=O)NC1C(=O)NC(CC(N)=O)C(=O)NC2C(=O)NC3C(=O)NC(C(=O)NC(C(=O)NCC(=O)Nc4ccc(O)cc4)c4cc(O)cc(O)c4-c4cc3ccc4O)C(O)c3ccc(c(Cl)c3)Oc3cc2cc(c3OC2OC(CO)C(O)C(O)C2OC2CC(C)(N)C(O)C(C)O2)Oc2ccc(cc2Cl)C1O (stereo not drawn)
3.72
3) C#Cc1ccc(-c2ccc(C(=O)NCCCNC(=O)[C@H]3NC(=O)[C@H]4NC(=O)[C@H](NC(=O)[C@@H]5NC(=O)[C@H](CC(N)=O)NC(=O)[C@H](NC(=O)[C@@H](CC(C)C)NC)[C@H](O)c6ccc(c(Cl)c6)Oc6cc5cc(c6O[C@@H]5O[C@H](CO)[C@@H](O)[C@H](O)[C@H]5O[C@H]5C[C@](C)(N)[C@H](O)[C@H](C)O5)Oc5ccc(cc5Cl)[C@H]4O)c4ccc(O)c(c4)-c4c(O)cc(O)cc43)cc2)cc1
4.54
